system: TK-10; experiment: Growth inhibition of human TK10 cells after 48 hrs by Sulforhodamine B assay; assay type: functional; settings: TK-10, 48 h
valueType: GI50

Record for O=c1[nH]c(-c2ccncc2)nc2sc3c(c12)CCCCCC3 under target or system TK-10: GI50 reported as > 100 µM

Query O=c1[nH]c(-c2ccccn2)nc2sc3c(c12)CCCCCC3 on TK-10; GI50 returned: > 100 µM

Tested system TK-10; GI50 recorded for COc1ccc(N2CCN(c3nc(-c4ccccn4)nc4sc5c(c34)CCCCCC5)CC2)cc1 was > 100 µM

All figures here come from ChEMBL document CHEMBL2375304.
